TGI reference
# Tested on: SNB-75 CNS
# Test Description: NCI tumour cell line growth inhibition, 48 h

// solved cases for TGI follow
> print(dat)
                                   compound      system  measured.quantity  meas.value
1  O=c1cc(-c2ccccc2)oc2ccc(Oc3nnnn3-c3ccccc3)cc12  SNB-75 CNS                TGI   > 92.5 µM
2     Cc1ccc2[nH]c3[nH]c(=O)[nH]c(=O)c3c2c1  SNB-75 CNS                TGI    > 100 µM
3  O=C(OCC12CC3CC(CC(C3)C1)C2)c1ccc(NCc2cc(O)ccc2O)cc1  SNB-75 CNS                TGI     7.23 µM
4           CCn1c(=O)ccc2ccc(N(CCO)CCO)nc21  SNB-75 CNS                TGI    > 100 µM
5  CCC[CH2][Sn]([CH2]CCC)([O]C(=O)c1nccnc1N)[O]C(=O)c1nccnc1N  SNB-75 CNS                TGI     2.12 µM

Could you share which TGI value was measured for C/C(=N/NC(=O)C(N)=O)C(CC(C(=O)Nc1ccccc1C)/C(C)=N\NC(=O)C(N)=O)C(=O)Nc1ccccc1C (stereo not given) ?
> 100 µM

Same again, this time with COc1cccc(NC(=O)CC(=O)N2NC(C)C(N=Nc3cccc(C(=O)O)c3)C2=O)c1 (stereo not given)
> 100 µM

Same again, this time with O=C1C2CCC(C2)C12CC1(c3ccccc3)C(=O)c3ccccc3N1O2 (stereo not given)
> 100 µM

Then CCCN(CCCCN1C(=O)c2ccccc2C1=O)CC1COc2ccccc2O1 (stereo not given) ?
> 100 µM

CCCCCC(=O)OCC1(CO)C/C(=C\CC(C(C)C)C(C)C)C(=O)O1 (stereo not given) ?
> 100 µM

Then this compound: O=c1c2ccccc2c(=O)c2c1cc(Cl)c1[nH]c3c([nH]c12)c(Cl)cc1c(=O)c2ccccc2c(=O)c13
> 100 µM

Queued: CN(C)CC(CO)(CN(C)C)CN(C)C
> 100 µM

Next up: CC(=O)OC1C(CCl)OC(N=[N+]=[N-])C(OC(C)=O)C1OC(C)=O (stereo not given)
> 100 µM

Same again, this time with COC(=O)C1CCC(Nc2cccc(C(F)(F)F)c2)=N1 (stereo not given)
> 100 µM

Then this compound: Cc1c(CCCl)c(N=[N+]=[N-])n2c(nc3ccccc32)c1C#N
2.87 µM
